molecular target: MIR-17; assay: IC50 of β-lactamase inhibitors, crude extract, MIR-17; details: crude extract of E. coli TOP10 recombinant strain, mean of triplicate
property.label: pIC50
Units for pIC50: none; it is -log10 of a concentration expressed in mol/L.

Asked: Find the measured pIC50 of `CC1=C[C@@H]2CN(C(=O)N2OS(=O)(=O)O)[C@@H]1C(N)=O` and report it.
Given back: 8.30

Asked: Find the measured pIC50 of `NCCONC(=O)[C@@H]1CC[C@@H]2CN1C(=O)N2OS(=O)(=O)O` and report it.
Given back: 6.22

Asked: Find the measured pIC50 of `O=C(O)c1c(F)ccc2c1OB(O)[C@@H]1C[C@H]21` and report it.
Given back: 6.51

###

Could you please report measured IC50 for the items listed next?
target: ACT-17 (Enterobacter asburiae); type: biochemical; settings: crude extract of E. coli TOP10 recombinant strain, mean of triplicate, read-out: IC50
Sequence (P05364 21-381): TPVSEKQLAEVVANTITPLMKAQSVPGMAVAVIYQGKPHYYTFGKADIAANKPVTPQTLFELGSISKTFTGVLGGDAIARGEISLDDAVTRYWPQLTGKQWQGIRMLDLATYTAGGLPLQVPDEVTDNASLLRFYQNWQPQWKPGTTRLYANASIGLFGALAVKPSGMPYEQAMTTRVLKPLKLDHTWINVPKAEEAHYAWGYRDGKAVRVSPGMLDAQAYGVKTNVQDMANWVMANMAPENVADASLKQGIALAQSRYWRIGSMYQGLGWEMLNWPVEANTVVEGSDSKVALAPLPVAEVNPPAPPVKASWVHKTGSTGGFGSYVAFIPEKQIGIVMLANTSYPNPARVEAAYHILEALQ

Asked: Find the measured IC50 of Cn1cc[n+](C[C@@]2(C)[C@H](C(=O)[O-])N3C(=O)C[C@H]3S2(=O)=O)n1 [Enmetazobactam, enmetazobactam] and report it.
Given back: 62 µM

Asked: Find the measured IC50 of NCCN[C@H]1CC[C@H](CC(=O)N[C@H]2Cc3cccc(C(=O)O)c3OB2O)CC1 [Taniborbactam, taniborbactam] and report it.
Given back: 0.21 µM

###

Could you please report measured pIC50 for the items listed next?
molecular target: PDC-382 (Pseudomonas aeruginosa, UniProt P24735, T96I); assay: biochemical; parameters: species or system P. aeruginosa
Sequence (P24735 27-397 T96I): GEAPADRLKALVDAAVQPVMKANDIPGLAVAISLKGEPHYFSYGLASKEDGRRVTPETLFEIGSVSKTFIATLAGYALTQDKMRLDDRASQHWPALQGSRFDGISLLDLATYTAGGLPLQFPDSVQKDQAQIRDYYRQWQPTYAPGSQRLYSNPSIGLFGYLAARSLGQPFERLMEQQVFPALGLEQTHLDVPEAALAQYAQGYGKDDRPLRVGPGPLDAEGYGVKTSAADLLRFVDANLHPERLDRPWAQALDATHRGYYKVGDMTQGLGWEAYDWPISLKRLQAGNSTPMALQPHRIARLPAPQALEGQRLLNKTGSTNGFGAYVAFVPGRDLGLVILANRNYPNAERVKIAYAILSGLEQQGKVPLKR
Units for pIC50: none; it is -log10 of a concentration expressed in mol/L.

Asked: Find the measured pIC50 of NCCONC(=O)[C@@H]1CC[C@@H]2CN1C(=O)N2OS(=O)(=O)O [Nacubactam, nacubactam] and report it.
Given back: 4.47

Asked: Find the measured pIC50 of O=C(O)C[C@@H]1CC[C@H](NC(=O)Cc2cccs2)B(O)O1 [Vaborbactam, vaborbactam] and report it.
Given back: 4.27

Asked: Find the measured pIC50 of O=C(O)c1c(F)ccc2c1OB(O)[C@@H]1C[C@H]21 [Xeruborbactam, xeruborbactam] and report it.
Given back: 6.49

Asked: Find the measured pIC50 of CC1=C[C@@H]2CN(C(=O)N2OS(=O)(=O)O)[C@@H]1C(N)=O [Durlobactam, durlobactam] and report it.
Given back: 7.00
